Assay: Half life in dog
Type: ADME, organism-based, Canis lupus familiaris
Details: in vivo
MEASURE_NAME: half-life (h)

compound_smiles=O=C(O)C[C@H](Cc1csc(CCCc2ccc3c(n2)NCCC3)n1)c1ccc2c(c1)OCO2 measure_name=half-life unit_info=h obs_value=13

====

Experiment: Bioavailability in dog
Format: ADME, organism-based, Canis lupus familiaris
Settings: in vivo
MEASURE_NAME: bioavailability (%)

compound_smiles=O=C(O)C[C@H](Cc1csc(CCCc2ccc3c(n2)NCCC3)n1)c1ccc2c(c1)OCO2 unit_info=% obs_value=60

====

Measured AUC/dose accompanies every entry in the list below.
Tested on: Rattus norvegicus
Assay: AUC/dose(mg/kg) in orally dosed rat
Assay type: ADME, organism-based, Plasma
Conditions: in vivo, po
MEASURE_NAME: AUC/dose (µg·h/mL)

compound="COCc1ncc(C(CC(=O)O)Cc2csc(CCCc3ccc4c(n3)NCCC4)n2)s1 (configuration not stated)" measure_name=AUC/dose obs_value=1.7
compound="COc1ccc(C(CC(=O)O)Cc2csc(CCCc3ccc4c(n3)NCCC4)n2)cc1F (configuration not stated)" measure_name=AUC/dose obs_value=1.8
compound="O=C(O)CC(Cc1csc(CCCc2ccc3c(n2)NCCC3)n1)c1ccc2c(c1)OCO2 (configuration not stated)" measure_name=AUC/dose obs_value=6.8
compound="O=C(O)CC(Cc1csc(CCCc2ccc3c(n2)NCCC3)n1)c1cnc(C2CC2)s1 (configuration not stated)" measure_name=AUC/dose obs_value=2.5
compound="O=C(O)CC(Cc1nc(CCCc2ccc3c(n2)NCCC3)no1)c1ccc2c(c1)OCO2 (racemic)" measure_name=AUC/dose obs_value=1.5
compound="COc1cc(OC)cc(C(CC(=O)O)Cc2csc(CCCc3ccc4c(n3)NCCC4)n2)c1 (configuration not stated)" measure_name=AUC/dose obs_value=2.2
compound="COc1ccc(C(CC(=O)O)Cc2csc(CCCc3ccc4c(n3)NCCC4)n2)cn1 (configuration not stated)" measure_name=AUC/dose obs_value=1.6
